# credit: the supplement of paper PMC10567573

# maps each entry to its protein stability index
B1: FBF1 (parent)
chain: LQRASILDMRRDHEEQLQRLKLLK

# Variants of: B1
# Protocol details: protein stability index of a GFP-peptide fusion (GPS, HEK-293T) (PSI 1-6); higher = more stable;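 further: lentivirally expressed fusions sorted by FACS into six bins by GFP to DsRed ratio, PSI derived from sequencing read proportions per bin multiplied by bin number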
# Test context: c terminus: a fixed tail appended
The answer should be written as a number, with no unit following it.

| Mutation descriptor | protein stability index |
| --- | --- |
| I6S | 4.15 |
| L17P | 4.63 |
| E15V | 3.13 |
| L7W | 2.9 |

Challenge: State, in one line, measured protein stability index of A4S
Response given: 2.67

Challenge: State, in one line, measured protein stability index of D8N
Response given: 3.48

Challenge: State, in one line, measured protein stability index of A4G
Response given: 3.17
